Source of measurements: patent US11534441B2

EXPERIMENTAL SYSTEM: MAP4K1 (HPK1) (Homo sapiens (Human))
Sequence (Q92918 whole entry): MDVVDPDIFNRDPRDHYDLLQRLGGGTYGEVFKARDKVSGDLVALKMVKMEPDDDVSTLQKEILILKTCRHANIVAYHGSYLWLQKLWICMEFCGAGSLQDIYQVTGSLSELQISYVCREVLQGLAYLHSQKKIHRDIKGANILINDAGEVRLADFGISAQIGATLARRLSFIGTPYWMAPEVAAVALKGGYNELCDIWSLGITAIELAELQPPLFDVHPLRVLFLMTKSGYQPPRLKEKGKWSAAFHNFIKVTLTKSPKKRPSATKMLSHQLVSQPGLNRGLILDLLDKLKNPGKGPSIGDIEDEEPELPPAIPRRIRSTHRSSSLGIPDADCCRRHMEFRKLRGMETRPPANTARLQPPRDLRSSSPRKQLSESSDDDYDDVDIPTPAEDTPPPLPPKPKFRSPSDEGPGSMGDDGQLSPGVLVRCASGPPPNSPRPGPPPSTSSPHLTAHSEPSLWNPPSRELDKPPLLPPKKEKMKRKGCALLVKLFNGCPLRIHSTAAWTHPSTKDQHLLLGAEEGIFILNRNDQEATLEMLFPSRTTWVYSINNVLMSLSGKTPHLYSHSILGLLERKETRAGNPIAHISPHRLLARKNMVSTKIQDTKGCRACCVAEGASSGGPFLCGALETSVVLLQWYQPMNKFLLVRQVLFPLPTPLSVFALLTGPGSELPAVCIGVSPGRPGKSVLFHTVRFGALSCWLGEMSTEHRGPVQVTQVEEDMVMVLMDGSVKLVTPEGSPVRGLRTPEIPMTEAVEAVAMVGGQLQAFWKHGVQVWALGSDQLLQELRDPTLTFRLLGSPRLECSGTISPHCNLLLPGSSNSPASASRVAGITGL
PROTOCOL TEXT: MAP4K1 (HPK1) biochemical enzymatic activity, electrophoretic mobility shift (EZReader 2), ATP at APPKM (26 μM)
EXPERIMENTAL PARAMETERS: class designation
OBSERVABLE: IC50

In: Form: Entry = `CC[C@@](C)(N)c1cnc(OC2CC2)c2cnc(Nc3ccc4c(n3)[C@](C)(CC)OC4=O)cc12` | System = MAP4K1 (HPK1) (Homo sapiens (Human)) | IC50 = ____
Out: < 0.3 nM

In: Queued: `C[C@@H]1OC(=O)c2ccc(Nc3cc4c([C@](C)(N)C5CC5)cnc(OC5(C)CC5)c4cn3)nc2[C@H]1C`
Out: 1.1 to 10 nM

In: Queued: `CC(C)(N)c1cnc(OCC(F)F)c2cnc(Nc3ccc4c(n3)C(C)(C)OC4=O)cc12`
Out: 1.1 to 10 nM

In: Queued: `COc1ncc(C(C)(C)N)c2cc(Nc3cnc4c(n3)CC(C)(C)OC4=O)ncc12`
Out: > 10 nM

In: Queued: COc1ncc(C(C)(C)N)c2cc(Nc3cnc(C#N)c(C(C)C(F)(F)F)n3)ncc12 (stereo not drawn)
Out: 1.1 to 10 nM

In: Queued: `CC[C@](C)(N)c1cnc(OC2(C)CC2)c2cnc(Nc3ccc4c(n3)[C@@H](C)C(C)(C)OC4=O)cc12`
Out: 0.31 to 1 nM

In: Queued: `CCOc1ncc(C(C)(C)N)c2cc(Nc3ccc4c(n3)[C@@H](C)[C@H](C)OC4=O)ncc12`
Out: < 0.3 nM

In: Queued: `CCOc1ncc(C(C)(C)N)c2cc(Nc3ccc4c(n3)[C@H](C)[C@@H](C)OC4=O)ncc12`
Out: 0.31 to 1 nM

In: Queued: `COc1ncc(C(C)(C)N)c2cc(Nc3ccc4c(n3)[C@H](C)[C@@H](C)OC4=O)ncc12`
Out: < 0.3 nM

In: Queued: `CCNc1ncc(C(C)(C)N)c2cc(Nc3ccc4c(n3)CC(C)(C)OC4=O)ncc12`
Out: 0.31 to 1 nM

In: Queued: `CC(C)(N)c1cnc(OC2CC2)c2cnc(Nc3ccc4c(n3)C(C)(C)COC4=O)cc12`
Out: < 0.3 nM

In: Queued: `CNc1ncc(C(C)(C)N)c2cc(Nc3cnc(C#N)c(C(C)C)n3)ncc12`
Out: > 10 nM

In: Queued: `CC[C@](C)(N)c1cnc(OC2CC2)c2cnc(Nc3ccc4c(n3)C3(CC3)[C@H](C)OC4=O)cc12`
Out: < 0.3 nM

In: Queued: `CC[C@](C)(N)c1cnc(OC2CC2)c2cnc(Nc3ccc4c(n3)C(C)(C)[C@@H](C)OC4=O)cc12`
Out: < 0.3 nM

In: Queued: `COc1ncc(C(C)(C)N)c2cc(Nc3cnc(C#N)c(C(C)(C)F)n3)ncc12`
Out: 1.1 to 10 nM
